# Experimental system: human NaV 1.8 (Homo sapiens)
# Sequence (Q9Y5Y9 126-399 limits assumed): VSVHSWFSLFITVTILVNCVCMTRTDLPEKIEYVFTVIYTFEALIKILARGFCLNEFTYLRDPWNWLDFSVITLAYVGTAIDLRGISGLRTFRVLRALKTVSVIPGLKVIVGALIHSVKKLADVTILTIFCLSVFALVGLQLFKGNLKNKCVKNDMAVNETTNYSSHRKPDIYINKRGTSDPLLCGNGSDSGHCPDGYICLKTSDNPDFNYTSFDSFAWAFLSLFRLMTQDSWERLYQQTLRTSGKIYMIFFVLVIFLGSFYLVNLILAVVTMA
# Sequence (Q9Y5Y9 660-890 limits assumed): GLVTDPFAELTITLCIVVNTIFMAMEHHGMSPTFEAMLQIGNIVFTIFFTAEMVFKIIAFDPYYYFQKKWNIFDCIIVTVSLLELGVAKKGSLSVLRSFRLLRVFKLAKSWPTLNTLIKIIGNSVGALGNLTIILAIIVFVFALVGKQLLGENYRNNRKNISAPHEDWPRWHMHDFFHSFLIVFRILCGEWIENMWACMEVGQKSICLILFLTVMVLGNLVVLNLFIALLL
# Sequence (Q9Y5Y9 1148-1722 limits assumed): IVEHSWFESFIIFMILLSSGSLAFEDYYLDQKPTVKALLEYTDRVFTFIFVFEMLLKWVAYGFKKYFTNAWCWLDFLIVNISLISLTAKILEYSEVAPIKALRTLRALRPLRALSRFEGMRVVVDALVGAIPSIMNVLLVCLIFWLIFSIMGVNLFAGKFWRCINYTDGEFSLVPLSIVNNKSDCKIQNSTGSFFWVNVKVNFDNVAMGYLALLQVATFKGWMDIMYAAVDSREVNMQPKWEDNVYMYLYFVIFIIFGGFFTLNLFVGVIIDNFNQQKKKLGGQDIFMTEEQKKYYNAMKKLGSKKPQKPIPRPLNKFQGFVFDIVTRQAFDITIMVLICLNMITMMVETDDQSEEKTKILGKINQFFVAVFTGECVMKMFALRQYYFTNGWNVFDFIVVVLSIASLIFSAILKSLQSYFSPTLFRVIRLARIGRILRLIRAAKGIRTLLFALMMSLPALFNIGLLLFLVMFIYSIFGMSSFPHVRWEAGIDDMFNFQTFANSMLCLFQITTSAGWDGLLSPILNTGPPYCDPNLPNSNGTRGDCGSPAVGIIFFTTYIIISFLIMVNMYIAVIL
# Experimental protocol: E-VIPR assay detecting and measuring NaV inhibition properties
# Assay type: cell-based
# Conditions used: HEK cells expressing truncated human NaV 1.8; no human serum; read-out: IC50 in the E-VIPR Assay
pIC50: −log10 of the molar value.
Measured endpoint: pIC50

Recorded pIC50 (compound Cc1ncc(C2CCOC2)cc1NC(=O)[C@@H]1O[C@@](C)(C(F)(F)F)[C@@H](C)[C@H]1c1ccc(F)c(F)c1OCCO (stereo partly drawn) ): ≤ 6.00

Recorded pIC50 (compound COc1c([C@H]2[C@H](C(=O)Nc3cc(CO)nn3C)O[C@@](C)(C(F)(F)F)[C@H]2C)ccc(F)c1F ): 7.00 to 8.00

Recorded pIC50 (compound COc1c([C@H]2[C@H](C(=O)Nc3ccc(SC)nc3)O[C@@](C)(C(F)(F)F)[C@H]2C)ccc(F)c1F ): 7.00 to 8.00

Recorded pIC50 (compound COc1c([C@H]2[C@H](C(=O)Nc3ccnc(N4CCC(N)C4=O)c3)O[C@@](C)(C(F)(F)F)[C@H]2C)ccc(F)c1F (single isomer, unassigned) ): 7.00 to 8.00

Recorded pIC50 (compound CC(C)Oc1c([C@@H]2[C@@H](C(=O)Nc3ccnc(S(C)(=N)=O)c3)O[C@](C)(C(F)(F)F)[C@@H]2C)ccc(F)c1F (single isomer, unassigned) [Compound 118] ): ≤ 6.00

Recorded pIC50 (compound COc1c([C@H]2[C@H](C(=O)Nc3ccnc(N4C[C@H]5CC[C@H](N5)C4=O)c3)O[C@@](C)(C(F)(F)F)[C@H]2C)ccc(F)c1F (single isomer, unassigned) ): 7.00 to 8.00

Recorded pIC50 (compound COc1c([C@H]2[C@H](C(=O)Nc3cc(C[C@@H](O)CO)n(C)n3)O[C@@](C)(C(F)(F)F)[C@H]2C)ccc(F)c1F ): ≤ 6.00

Recorded pIC50 (compound COc1c([C@H]2[C@H](C(=O)Nc3csnc3C)O[C@@](C)(C(F)(F)F)[C@H]2C)ccc(F)c1F ): > 8.00

Recorded pIC50 (compound COc1c([C@H]2[C@H](C(=O)Nc3ccnc(N4C(=O)[C@@H]5C[C@H]4CN5C)c3)O[C@@](C)(C(F)(F)F)[C@H]2C)ccc(F)c1F ): 7.00 to 8.00

Recorded pIC50 (compound CC1C(c2ccc(F)c(F)c2OC2CC(O)C2)C(C(=O)Nc2cc(CO)ncc2F)OC1(C)C(F)(F)F (stereo not drawn) ): ≤ 6.00

Recorded pIC50 (compound Cc1nocc1NC(=O)[C@@H]1O[C@@](C)(C(F)(F)F)[C@@H](C)[C@H]1c1ccc(F)c(F)c1OCCNC1COC1 ): 7.00 to 8.00

Recorded pIC50 (compound COc1c([C@H]2[C@H](C(=O)NC3CS(=O)(=O)C3)O[C@@](C)(C(F)(F)F)[C@H]2C)ccc(F)c1F ): ≤ 6.00

Values from patent US20240368135A1
